# Subject Of Test: T1, PHF14 ePHD domain WT (Homo sapiens, UniProt O94880 382-499)
# T1 sequence: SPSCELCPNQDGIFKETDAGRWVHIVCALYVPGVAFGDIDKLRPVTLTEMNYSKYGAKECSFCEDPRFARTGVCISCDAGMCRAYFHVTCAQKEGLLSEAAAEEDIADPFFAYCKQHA
# Assay Procedure: SPR; protein immobilized on CM5; SPR: HBS-P (10 mM HEPES pH 7.4, 150 mM NaCl, 0.05% P20), 25 °C, 1:1 Langmuir fit; EMSA: LightShift kit protocol, 0.5x TBE native PAGE, buffer not stated
# Test Settings: protein: recombinant; tags: His (EMSA, purification method); FLAG (SPR); label: biotin (EMSA); blunt
pKd for assorted binders
In plain terms, pKd is the concentration in mol/L turned into minus its base-10 logarithm.

Query: Determine from records and report pKd for CG-rich probe, unmethylated (dsDNA) DNA 1: ACGGCTCGTCGCTACGGCTCGTCGCT DNA 2: AGCGACGAGCCGTAGCGACGAGCCGT
Response: 7.44

Query: Determine from records and report pKd for AT-rich probe (dsDNA) DNA 1: CATTAGATGATAGCATTAGATGATAG DNA 2: CTATCATCTAATGCTATCATCTAATG
Response: 6.64

meta.source: paper PMC10113255
